Assay: yeast display, Sf9 membrane polyspecificity reagent, FACS + sequencing; frameworks hold sequencing errors

- Primary sequence: "QVQLVESGGGLVQAGGSLRLSCAASGRIFPFYAMGWYRQAPGKETELVAVINASGGGTYYADSVKGRFTISRDNAKNTVYLQMNSLKPEDTAVYYCAATYSPFDFYYWGQGTQVTVSS"
  polyreactivity (PSR sort gate): "low polyreactivity"
- Primary sequence: "QVKLVESGGGLVQAGGSLRLSFAAYGSIFAWYGMGWYRQAPGKERELVAAISTAGSTNYADSVKGRFTISRDNAKNTVYLQMNSLKPEDTAVYYCAKKSSWYYQERFDYWGQGTQVTASS"
  polyreactivity (PSR sort gate): "low polyreactivity"
